meta.source: PubChem BioAssay (NCI)

Tested on: NCI-H322M lung
Assay: NCI-60 one-dose screen, 48 h (100 = growth as untreated, 0 = no growth, -100 = all killed)
Conditions: 10 µM
About 83,000 compounds went through this panel and 20% of them were active in at least one assay; those are over-represented in the sample as a whole.
Recorded metric: growth (%)

CC(C)CCOC(=O)c1ccccc1 : 95.6
O=C(O)CCCCNC(=O)c1ccccc1 : 106
CC(=O)Cc1cc(-c2cc(CC(C)=O)[nH]n2)n[nH]1 : 96.2
O=C(NCc1ccco1)Nc1c(Cl)cc(Cl)cc1Cl : 106
O=C(Nc1cc(-c2ccccc2)[nH]n1)c1ccc(Cl)cc1 : 79.4
O=c1[nH][nH]c(=O)c2cc([N+](=O)[O-])ccc12 : 123
COc1cccc(COC(=O)Nc2ccccc2)c1OC : 101
CCCC(=O)Nc1ccc2c(c1)CN1C(=O)c3ccccc3C1=N2 : 99.1
CC(=O)Cc1ccc(-c2ccccc2)cc1 : 85.9
Cc1cccc([N+](=O)[O-])c1Cl : 105
Oc1ccc(N=Nc2ccc(Br)cc2)c(O)c1 : 67
N/N=C(/Cc1ccccc1)NNC(N)=S : 82.7
c1ccc(Sc2ccccc2)cc1 : 118
CN(C)CCC(=O)c1ccc(O)cc1 : 106
CN(C)c1ccc(C(c2ccc(O)cc2)c2ccc(N(C)C)cc2)cc1 : 98.4
[O-][N+](=Nc1cccc(Cl)c1)c1cccc(Cl)c1 : 95.9

###

Tested on: MOLT-4 leukemia
Experiment: NCI-60 one-dose screen, 48 h (100 = growth as untreated, 0 = no growth, -100 = all killed)
Conditions: 10 µM
About 83,000 compounds went through this panel and 20% of them were active in at least one assay; those are over-represented in the sample as a whole.
Recorded metric: growth (%)

c1cc2cccc3c4cccc5cccc(c(c1)c23)c54 : 105
O/N=C/c1ccc(O)cc1O : 102
Nc1ccc(N=Nc2ccc(O)cc2)c(N)n1 : 46.1
O=c1[nH][nH]c(=O)c2cc([N+](=O)[O-])ccc12 : 100
O=C(NCCNC(=O)c1ccc(Cl)cc1Cl)c1ccc(Cl)cc1Cl : 96.6
O=C(Nc1ccccc1)OCCc1ccccc1 : 101
O=C(O)CCC(=O)OC(C1CO1)C(OC(=O)CCC(=O)O)C1CO1 (stereo unspecified) : 99.8
[O-][N+](=Nc1cccc(Cl)c1)c1cccc(Cl)c1 : 125
COc1cccc(/C=N/NC(=S)NC2CC3CCC2C3)c1O (stereo unspecified) : 44.8
CC(=O)c1cc2c(cc1F)C(C)(C)CCC2(C)C : 89.1
Cc1c(C(=O)O)c(=O)n(-c2ccccc2)n1C : 113
Cc1cc(=O)n(-c2ccc(F)cc2)[nH]1 : 99.7
O=C(Cc1nc2ccc([N+](=O)[O-])cc2nc1CC(=O)c1ccccc1)c1ccccc1 : 54.2
Cc1cc2nc(CC(=O)c3cccc([N+](=O)[O-])c3)c(=O)[nH]c2cc1C : 83.4
COC(=O)C(O)c1ccccc1 (stereo unspecified) : 105
CCCCOC(=O)c1ccc(C(C)C)cc1 : 83.3
CCCCC(=O)c1ccc(OC)cc1 : 104
COc1cccc(O)c1O : 64.8
CCC(C#N)(CC)c1ccccc1 : 107
O=c1[nH]n(-c2ccccc2)c(=O)cc1Cl : 95.4
COC(=O)CCCCC1=CCC2C(=O)C=C(O)C2C1 (stereo unspecified) : 82.7
